- TEST_DESCRIPTION: in vitro
- CONDITION_NOTES: HCV CC50
Binary label based on CC50 with cut-off 7 µM: below gives T, not below gives F.

Data request: Dear colleague, could you confirm whether CC50 of `COc1cccc2c(Nc3ccc4c(c3)OCCO4)cc(C)nc12` falls below 7 µM? Thanks.
Data returned: F

Data request: For this molecule, is CC50 lower than 7 µM? `CCOc1ccc2nc(C)cc(Nc3ccc(Cl)cc3)c2c1`
Data returned: F

Data request: hey, is CC50 for `Cc1ccc2nc3c(c(Nc4ccc(N5CCOCC5)cc4)c2c1)CCC3` lower than 7 µM or not?
Data returned: F

Data request: Hello, is CC50 of the following molecule strictly smaller than 7 µM? CCOC(=O)c1cnc2c(OC)cccc2c1NCC(C)O (stereo not shown)
Data returned: F

Data request: Input `CCOc1ccc2nc(C)cc(Nc3ccc(C)c(Cl)c3)c2c1` ; condition: CC50 strictly below 7 µM. Does it hold?
Data returned: T

Data request: Field: below-cutoff. Rule: recorded CC50 strictly less than 7 µM. Subject: `CCc1ccccc1Nc1c2ccccc2nc2ccccc12`
Data returned: T

Data request: Confirm or reject: CC50 of `COc1ccccc1Nc1cc(C)nc2c(C)c(C)cc(N)c12` lies strictly below 7 µM
Data returned: F

Data request: Is it true that CC50 reported for `CCOC(=O)c1cnc2c(OC)cccc2c1NCCCO` is less than 7 µM?
Data returned: F

Data request: Is CC50 of `CCOC(=O)c1cnc2c(C)cc(C)cc2c1NCCCN(C)C` strictly below 7 µM?
Data returned: F

Data request: Hello, I'm reviewing records and need to know if CC50 of `Cc1cc(Nc2ccc(C)c(Cl)c2)c2cccc(C)c2n1` is below 7 µM. Could you check?
Data returned: F

---

- TEST_DESCRIPTION: in vitro
- CONDITION_NOTES: YFV CC50
Binary call on CC50 with cut-off 40 µM: strictly below means 1, and equality or higher means -1.

Data request: Given `CCOC(=O)c1cnc2ccc(F)cc2c1NCCCN(C)C` , is recorded CC50 strictly lower than 40 µM?
Data returned: -1

Data request: Please let me know if `CCOc1ccc2nc(C)cc(Nc3cc(Cl)ccc3OC)c2c1` shows CC50 below 40 µM.
Data returned: 1

Data request: Strictly below 40 µM in CC50? `Cc1ccc2nc(C)cc(NCc3ccccc3)c2c1`
Data returned: -1

Data request: Lab note: confirm whether the reported CC50 for this molecule is below 40 µM, equality not counting. molecule: `CCOC(=O)c1cnc2ccc(F)cc2c1Nc1ccc(S(=O)(=O)Nc2nc(C)cc(C)n2)cc1`
Data returned: -1

Data request: Strictly below 40 µM in CC50? `COc1cccc2c(Nc3cccc([N+](=O)[O-])c3)cc(C)nc12`
Data returned: 1

Data request: Is the reported CC50 for `CCOC(=O)c1cnc2ccc(C)cc2c1Nc1ccc(N2CCOCC2)cc1` strictly below 40 µM?
Data returned: -1

Data request: Hi there! Is CC50 for `CCOC(=O)c1cnc2c(C)cc(C)cc2c1NCCCN(C)C` below 40 µM, do you know?
Data returned: 1

Data request: hey, is CC50 for `C=CCNc1c2c(nc3ccccc13)CCC2` lower than 40 µM or not?
Data returned: -1

Data request: Hello, is CC50 of the following molecule strictly smaller than 40 µM? `CCOC(=O)c1cnc2c(Cl)c(Cl)ccc2c1NCc1ccco1`
Data returned: 1

Data request: Bench note: check whether `CCOC(=O)c1cnc2ccc(OCC)cc2c1NCc1ccco1` shows CC50 below 40 µM
Data returned: -1

Data request: Just wondering, is CC50 of `CCOC(=O)c1cnc2c(C)cc(C)cc2c1NCc1ccco1` below 40 µM?
Data returned: 1

Data request: In the record for `CC(=O)c1cccc(Nc2cc(C)nc3ccccc23)c1` , is CC50 less than 40 µM?
Data returned: -1

---

- Tested on: WNV (WN-hRuPac cells)
- TEST_DESCRIPTION: WNV antiviral activity, WN-hRuPac cells, Renilla luciferase
- Assay type: cell-based, West Nile virus
- CONDITION_NOTES: West Nile virus; Secondary Data; WNV; read-out: WNV EC50
QUANTITY_MEASURED: EC50 (µM)
The reply should be a number in µM, with the unit left off.

Data request: Test system WNV (WN-hRuPac cells); read-out EC50; what value for COc1ccccc1Nc1cc(C)nc2c(C)c(C)cc(N)c12 [Compound 79] ?
Data returned: 19

Data request: What EC50 appears in the records for this compound with WNV (WN-hRuPac cells)? CCOC(=O)c1cnc2c(C)cccc2c1NCc1ccco1 [Compound 46]
Data returned: 2.96

Data request: WNV (WN-hRuPac cells) / EC50 / CCOC(=O)c1cnc2ccc(F)cc2c1NCCCN(C)C [Compound 66] : value?
Data returned: 22.9

Data request: Hello, I am looking for reported EC50 with WNV (WN-hRuPac cells) for CCOC(=O)c1cnc2ccc(OCC)cc2c1NCc1ccco1 [Compound 36] . Could you help?
Data returned: 2.38

Data request: Enter reported EC50 observed with WNV (WN-hRuPac cells) for CCOC(=O)c1ccc2nc(C)cc(Nc3ccc(C)cc3C)c2c1 [Compound 51]
Data returned: 16

---

Exercise: for every item that follows, state its recorded EC50.
- Test system: EBOV minigenome
- TEST_DESCRIPTION: microbe, parasite or virus in culture
- Format: cell-based, Ebola virus
- CONDITION_NOTES: Zaire ebolavirus, read-out: EBOV EC50
Give a bare numeral; the unit µM is implied.

Data request: So what does the record say about EC50 for `Cc1ccc2nc3c(c(Nc4ccc(O)cc4)c2c1)CCC3` ?
Data returned: 29.9

Data request: Returns the measured EC50 for the input compound. Input: `CCc1ccccc1Nc1cc(C)nc2c(OC)cccc12`
Data returned: 55.8

Data request: So what's the measured EC50 for this one? `COC(=O)c1ccc(Nc2cc(C)nc3ccc(Cl)cc23)cc1`
Data returned: 75

Data request: Entry under review: `CCOC(=O)c1cnc2ccc(C)cc2c1Nc1ccc(N2CCOCC2)cc1` . Reported EC50?
Data returned: 75

Data request: May I ask what EC50 has been recorded for `COC(=O)c1ccc(Nc2c3c(nc4ccccc24)CCC3)cc1` ?
Data returned: 54.5

Data request: May I ask what EC50 has been recorded for `CCOC(=O)c1cnc2c(OC)cccc2c1NCc1ccccc1` ?
Data returned: 75

Data request: Suppose we examine the compound `COc1ccc(Nc2cc(C)nc3c2ccc2ccccc23)cc1` ; what EC50 value has been reported?
Data returned: 10.8

Data request: Name the reported EC50 value associated with the compound `CCOC(=O)c1cnc2c(OC)cccc2c1NCc1ccco1`
Data returned: 20.1

Data request: Could you tell me which EC50 is on file for `CCOC(=O)c1cnc2c(ccc3ccccc32)c1NCc1ccco1` ?
Data returned: 75

Data request: EC50 lookup needed for `Cc1ccc2nc(C)cc(N3CCC(C)CC3)c2c1` , thanks.
Data returned: 71.1

Data request: Entry under review: `COC(=O)c1ccc(Nc2cc(C)nc3cc(Cl)ccc23)cc1` . Reported EC50?
Data returned: 65.6

Data request: Given the compound `CCOC(=O)c1cnc2c(OC)cccc2c1NCc1cccnc1` , what is its reported EC50?
Data returned: 68.7

Data request: Give the measured EC50 of `CCOC(=O)c1cnc2c(Cl)cc(Cl)cc2c1NCc1ccco1` .
Data returned: 13.2

Data request: Which EC50 is reported for this compound? `COc1ccc(Nc2cc(C)nc3ccccc23)cc1`
Data returned: 50.1

Data request: Value lookup for EC50; key = `Cc1ccc2nc3c(c(Nc4ccc(N5CCOCC5)cc4)c2c1)CCC3`
Data returned: 47.9

Data request: State the recorded EC50 for this entry: `CCOC(=O)c1cnc2c(Cl)cccc2c1NCc1ccco1`
Data returned: 10.4

Data request: Record request: EC50 value, item `CCOC(=O)c1cnc2c(Cl)c(Cl)ccc2c1NCc1ccco1`
Data returned: 75

Data request: Entry under review: `CCOc1ccc2nc(C)cc(Nc3ccc(OCc4ccccc4Cl)cc3)c2c1` . Reported EC50?
Data returned: 65.8

Data request: Item under review: `Cc1cc(Nc2cccc(Cl)c2C)c2cccc(C)c2n1` . Reported EC50?
Data returned: 48.8

Data request: Value lookup for EC50; key = `CCOC(=O)c1ccc2ncc(C(=O)OCC)c(NCc3ccco3)c2c1`
Data returned: 6.03

---

- Tested on: EBOV minigenome
- TEST_DESCRIPTION: microbe, parasite or virus in culture
- Type: cell-based, Ebola virus
- CONDITION_NOTES: Zaire ebolavirus, read-out: EBOV EC50
I'd appreciate it if you could supply EC50 values for the items below.
Expressed in µM, but write only the number.

Data request: What EC50 value was documented for this molecule, CCOC(=O)c1cnc2c(OC)cccc2c1NCC(C)O (centres unmarked) ?
Data returned: 57.6

Data request: What value of EC50 has been recorded for this entry: `CCOC(=O)c1cnc2c(C)cc(C)cc2c1NCc1ccco1`
Data returned: 6.64

Data request: // EC50 lookup, key: `CC(=O)c1cccc(Nc2cc(C)nc3c(C)cc(C)cc23)c1`
Data returned: 26.4

Data request: EC50 lookup needed for `C=CCNc1c2c(nc3ccccc13)CCC2` , thanks.
Data returned: 45.4

Data request: Consider the molecule `Cc1cccc(Nc2c3c(nc4ccccc24)CCC3)c1` and give its measured EC50.
Data returned: 25.9
